Ref: the Human Domainome abundance scans (Beltran et al. 2025)

So I've got a bunch of variants here, and I need their abundance fitness values.
B1: Dystrobrevin alpha, residues 235 to 294; numbered along this chain, Q9Y4J8 (parent)
chain: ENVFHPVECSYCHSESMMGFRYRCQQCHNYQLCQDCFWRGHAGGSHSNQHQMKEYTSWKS

- Variants of: B1
- test_summary: abundance fitness (aPCA) (normalised: wild type 0, dead -1); higher = more abundant; growth selection in yeast, the domain comes from the species named
- assay_context: Homo sapiens
Write the value as a bare number.

Please look at this variant and report its abundance fitness: G40E
-0.284

Please look at this variant and report its abundance fitness: H28V
0.06

Please look at this variant and report its abundance fitness: A42Y
-0.381

Please look at this variant and report its abundance fitness: N48L
-0.22

Please look at this variant and report its abundance fitness: G40S
-0.229

Please look at this variant and report its abundance fitness: Q49P
-0.249

Please look at this variant and report its abundance fitness: S14Q
-0.16

Please look at this variant and report its abundance fitness: K53A
-0.135

Please look at this variant and report its abundance fitness: N29F
0.007

Please look at this variant and report its abundance fitness: P6L
-0.176

Please look at this variant and report its abundance fitness: H28T
0.1

Please look at this variant and report its abundance fitness: Q49K
-0.14

Please look at this variant and report its abundance fitness: L32T
0.053

Please look at this variant and report its abundance fitness: S16M
-0.041

Please look at this variant and report its abundance fitness: S16R
0.06

Please look at this variant and report its abundance fitness: C12S
-1.17

Please look at this variant and report its abundance fitness: Q34V
-0.169

Please look at this variant and report its abundance fitness: A42V
0.005

Please look at this variant and report its abundance fitness: C36P
-0.565

Please look at this variant and report its abundance fitness: S47N
0.029

Please look at this variant and report its abundance fitness: M17V
0.004

Please look at this variant and report its abundance fitness: C9I
-1.19
